# System: ERK1/2
# measurement description: Bio-layer interferometry binding kinetics
# Set-up: species or system human
# measurement parameters: BLI, 25 °C
measurement kind: binding kinetics (association and dissociation)

| chemical string | result |
| --- | --- |
| Nc1[nH]nc2nnc(-c3c(-c4ccccc4)nn4ccccc34)cc12 | fast kinetic behaviours |
| Nc1ncnc2c1c(I)cn2[C@@H]1O[C@H](CO)[C@@H](O)[C@H]1O | fast kinetic behaviours |

###

# measured target: JNK3 (Homo sapiens)
# Sequence (P53779 whole entry): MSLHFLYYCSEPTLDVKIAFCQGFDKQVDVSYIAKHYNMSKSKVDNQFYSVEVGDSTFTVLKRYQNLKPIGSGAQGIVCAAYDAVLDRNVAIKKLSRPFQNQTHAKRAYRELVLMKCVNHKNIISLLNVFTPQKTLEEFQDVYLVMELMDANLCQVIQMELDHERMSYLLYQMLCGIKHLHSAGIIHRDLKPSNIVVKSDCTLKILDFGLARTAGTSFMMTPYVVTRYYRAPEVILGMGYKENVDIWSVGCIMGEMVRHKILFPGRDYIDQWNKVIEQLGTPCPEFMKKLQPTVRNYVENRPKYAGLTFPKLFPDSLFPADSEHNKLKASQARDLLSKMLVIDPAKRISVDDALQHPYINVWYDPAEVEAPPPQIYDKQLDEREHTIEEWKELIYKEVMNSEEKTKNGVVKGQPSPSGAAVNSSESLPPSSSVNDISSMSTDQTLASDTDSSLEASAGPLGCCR
pIC50: −log10 of the molar value.

| compound | pIC50 |
| --- | --- |
| O=C(Nc1ccc2[nH]nc(-c3ccncc3)c2c1)[C@@H]1CCN(CC(=O)N2CCN(c3ccc(-c4ncccn4)cc3)CC2)C1 [SCH772984] | 6.20 |
